- Tested on: HL-60
- RUN_DESCRIPTION: NCI tumour cell line growth inhibition, 48 h
Active and inactive are the calls of the source. Rule as the data show it: active = GI50 up to about 1.1 µM and inactive = higher.
Respond with a class label; see 1 (yes) (active), 0 (no) (inactive)

>>> assigned_label("N#Cc1c(C#N)c(SSc2c(C#N)c(C#N)c(N)n2-c2cccc3ccccc23)n(-c2cccc3ccccc23)c1N")
"0 (no)"
>>> assigned_label("C=C(C)[C@H](O)C(O)CC(C)[C@@H]1CCC23CC12CCC1[C@@]2(C)CCC(OC(C)=O)C(C)(C)C2CC(OC2OC(COC(C)=O)C(O)C(O)C2O)[C@]13C (stereo not given in full)")
"0 (no)"
>>> assigned_label("c1ccc([P+](c2ccccc2)(c2ccccc2)c2ccc([P+](c3ccccc3)(c3ccccc3)c3ccccc3)c3ccccc23)cc1")
"0 (no)"
>>> assigned_label("Clc1ccccc1CN1COc2c(ccc3cccnc23)C1")
"0 (no)"

Query: For COC(=O)C1=C(c2ccc3c(c2)OCO3)O[C@H](c2cc(OC)c(OC)c(OC)c2)[C@H]1COC(C)=O , what call appears in the results of this test?
Result: 1 (yes)
